Tested on: PDL Fibroblasts
Test method notes: SRB cytotoxicity on normal periodontal ligament fibroblasts, selective cytotoxicity
Type: cell-based, Human
Experimental context: IC50 on PDL fibroblasts divided by IC50 on K562
Please use 1 (yes) for Selectivity index SI (K562) under 8 and 0 (no) for everything else, ties included.

Please review the entries below; each comes with its answer.
Molecule: CCCCc1ccc(Nc2c(F)cc3c(=O)c(C(=O)O)cn(C4CC4)c3c2[N+](=O)[O-])cc1 [3e]
Category: 0 (no)
--
Molecule: COc1cccc(Nc2c(F)cc3c(=O)c(C(=O)O)cn(C4CC4)c3c2N)c1 [4b]
Category: 0 (no)
--
Molecule: CCn1cc(C(=O)O)c(=O)c2cc(F)c(Nc3ccc(OC)cc3OC)c(N)c21 [12c]
Category: 1 (yes)
--
Molecule: CCn1cc(C(=O)O)c(=O)c2cc(F)c(Nc3cccc(OC)c3)c(N)c21 [12b]
Category: 1 (yes)

Given the entry COc1cccc(-n2nnc3c4c(cc(F)c32)c(=O)c(C(=O)O)cn4C2CC2)c1 [5b] , would its reported Selectivity index SI (K562) be below 8? 0 (no)

Given the entry COc1ccc(-n2nnc3c4c(cc(F)c32)c(=O)c(C(=O)O)cn4C2CC2)c(OC)c1 [5g] , would its reported Selectivity index SI (K562) be below 8? 1 (yes)

Given the entry CCn1cc(C(=O)O)c(=O)c2cc(F)c3c(nnn3-c3ccccc3OC)c21 [13a] , would its reported Selectivity index SI (K562) be below 8? 0 (no)

Ref: paper PMC8325119
